Source: ChEMBL document CHEMBL1201862

Tested on: A549
Test: NCI tumour cell line growth inhibition, 48 h
The source made the active and inactive calls. Rule as the data show it: active = GI50 up to about 1.1 µM and inactive = higher.
observable: GI50

molecule	measuredResult
[N-]=[N+]=NC1CC(n2cc(COCC(F)(F)F)c(=O)[nH]c2=O)OC1CO (stereo unspecified)	> 100 µM (inactive)
C/C(=N\O)C1CC(CC(=O)O)C1(C)C (stereo unspecified)	> 100 µM (inactive)
CN1CCN(c2n[nH]c(=O)c3c2nnn3C2CCCCC2)CC1	> 100 µM (inactive)
COc1ccc(C(C)NNC(=O)c2ccncc2)c(OC)c1 (stereo unspecified)	> 100 µM (inactive)
CC1=C(C(=O)NCc2ccccc2)C(c2ccccc2C)C(C(=O)NCc2ccccc2)=C(C)N1	49.8 µM (inactive)
O=C(O)c1cc(O)c2c(c1)Cc1cccc(O)c1C2=O	31.4 µM (inactive)
CCCC(=O)OCOC(=O)N(C)/N=N/c1ccc(C(=O)OCC)cc1	19.3 µM (inactive)
CCC12CN(C(=O)OC)C3C(Br)C1CCC(=O)C32 (stereo unspecified)	> 100 µM (inactive)
O=C(CCCN1CCC2(CC1)C(=O)NC(=O)N2c1ccccc1)c1ccc(F)cc1	> 100 µM (inactive)
COc1cc(C(=O)Nc2cccc3ccccc23)c(Br)c(OC)c1OC	66.2 µM (inactive)
C=CC(Br)(CBr)CCC(Br)C(C)(C)Cl (stereo unspecified)	11.5 µM (inactive)

---

A collection of compounds and their measured GI50
Test system: OVCAR-5
Test: NCI tumour cell line growth inhibition, 48 h
Active and inactive are the calls of the source. No stated cut-off is given here; in the data, active = GI50 up to about 1.1 µM and inactive = higher.
observable: GI50

compound	observable	measuredResult
C1COC2SC3=C(SC(=C4SC5=C(SCCS5)S4)S3)SC2O1 (stereo unspecified)	GI50	> 100 µM (inactive)
Sc1nnc(COc2ccc(Cl)cc2)[nH]1	GI50	> 100 µM (inactive)
COC(=O)C1(Cc2ccccc2)Cc2cc3c(cc2C1)CCC3	GI50	27.7 µM (inactive)
CC(C)=Cc1cc(C(=O)NCCNC(=O)c2cc(C=C(C)C)nc(NC#N)n2)nc(NC#N)n1	GI50	> 100 µM (inactive)
CC(C)=CC(=O)Cc1nc2cc(C)c(C)cc2[nH]c1=O	GI50	> 100 µM (inactive)
O=C(O)c1cc(O)c2c(c1)Cc1cccc(O)c1C2=O	GI50	29.9 µM (inactive)

---

Tested on: HCT-116
Test: NCI tumour cell line growth inhibition, 48 h
Active and inactive are the calls of the source. No stated cut-off is given here; in the data, active = GI50 up to about 1.1 µM and inactive = higher.
A collection of compounds and their measured GI50

smilesCode	targetOrSystem	GI50
COc1ccc2c(c1)/C(=C\c1c(Cl)n(-c3ccccc3)c3ccccc13)C(=O)N2	HCT-116	2.99 µM (inactive)
Brc1ccc(/N=c2/nc3ccccn3n3nc(-c4ccccc4)cc23)cc1	HCT-116	52.6 µM (inactive)
CCOP(=O)(/C=C\n1ccc(=O)[nH]c1=O)OCC	HCT-116	> 100 µM (inactive)
O=C(C/N=C(\CN(c1ccccc1)c1ccccc1)Oc1c(Cl)cc(Cl)cc1Cl)n1cnc2ccccc21	HCT-116	34 µM (inactive)
Cn1c2c(c3ccccc31)CCN(CCCN1CCN(c3cccc(Cl)c3)CC1)C2=O	HCT-116	12.3 µM (inactive)
CCOC(=O)NC(=O)c1cn(CC(=O)NCC(=O)NCC(=O)N2CCN(CCn3c(C)nc(C(N)=O)c3N)CC2)c(=O)[nH]c1=O	HCT-116	> 100 µM (inactive)
Cc1ccccc1NC(=O)CC(=O)n1nc(-c2ccccc2)c(/N=N/c2ccc([N+](=O)[O-])cc2)c1-c1ccccc1	HCT-116	14.4 µM (inactive)
[O-][n+]1cc(SCc2ccccc2)ncc1SCc1ccccc1	HCT-116	> 10 µM (inactive)
O=CCCn1[nH]c(=O)ccc1=O	HCT-116	> 100 µM (inactive)
CNc1ccccc1-c1nc2ccccc2c(=O)o1	HCT-116	> 100 µM (inactive)
